test system: Amaranthus retoflexus (AMARE); assay: Pre-emergence biological efficacy, glasshouse pot test; type: in vivo; conditions: Amaranthus retroflexus, 312 h; pre-emergence, 1,000 g/ha, evaluated after 13 days (100=total damage; 0=no damage); read-out: Percentage damage AMARE
Hi there, I'd appreciate the recorded pest or weed control at 1000 g/ha for every entry that follows.
Give bare numbers, in %.

Answered cases to consult:
| molecule | recorded.measurement |
| --- | --- |
| COC(=O)c1nc(C2CC2)nc(NCc2ccc(Cl)cc2)c1Cl [Compound 4-63] | 60 |
| COC(=O)c1nc(C2CC2)nc(NCC(c2ccccc2)c2ccccc2)c1Cl [Compound 4-267] | 90 |

Below: the item to evaluate.
Request: I'd like to know its pest or weed control at 1000 g/ha. The molecule in question is COC(=O)c1nc(C2CC2)nc(N[C@@H]2c3ccccc3C[C@@H]2O)c1Cl [4-37 (1R,2S)]
Result: 100
